Field: log10(EC50). Provide a value for each of the compounds that follow.
- target_under_test: Melanin-concentrating hormone receptor 1 (Rattus norvegicus, UniProt P97639)
- Sequence (P97639 whole entry): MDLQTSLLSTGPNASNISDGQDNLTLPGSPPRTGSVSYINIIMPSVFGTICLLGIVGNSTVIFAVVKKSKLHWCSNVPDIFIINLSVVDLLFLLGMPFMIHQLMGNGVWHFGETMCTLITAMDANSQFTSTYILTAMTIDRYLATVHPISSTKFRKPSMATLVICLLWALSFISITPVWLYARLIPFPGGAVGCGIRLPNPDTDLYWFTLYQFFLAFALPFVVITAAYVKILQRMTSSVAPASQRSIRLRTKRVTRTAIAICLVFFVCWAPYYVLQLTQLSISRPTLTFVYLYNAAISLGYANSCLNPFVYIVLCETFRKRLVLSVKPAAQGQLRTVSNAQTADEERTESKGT
- test_name: […] of IP3-coupled mobilization of calcium in HEK293 cells expressing rat MCH-R1
- Type: functional, cell-based
# log10 transformed; quantity=EC50; unit=nM

In: Recorded log10(EC50) for O=C(CCc1ccc(C(F)(F)F)cc1)Nc1ccc2nc(N3CC4CC3CO4)ccc2c1 (centres undefined) , please?
Out: 1.85

In: Recorded log10(EC50) for `CCCN(C)c1ccc2cc(NC(=O)CCc3ccc(C(F)(F)F)cc3)ccc2n1` , please?
Out: 2.15

In: Recorded log10(EC50) for CNC(=O)NC1CCN(c2ccc3cc(NC(=O)CCc4ccc(C(F)(F)F)cc4)ccc3n2)C1 (centres undefined) , please?
Out: 1.48

In: Recorded log10(EC50) for CS(=O)(=O)NC1CCN(c2ccc3cc(NC(=O)CCc4ccc(C(F)(F)F)cc4)ccc3n2)C1 (centres undefined) , please?
Out: 1.70

In: Recorded log10(EC50) for `CCN(CC)c1ccc2cc(NC(=O)CCc3ccc(C(F)(F)F)cc3)ccc2n1` , please?
Out: 2.92

In: Recorded log10(EC50) for O=C(CCc1ccc(C(F)(F)F)cc1)Nc1ccc2nc(N3CCC(NC(=O)c4ccccc4)C3)ccc2c1 (centres undefined) , please?
Out: 2.04

In: Recorded log10(EC50) for `O=C(CCc1ccc(C(F)(F)F)cc1)Nc1ccc2nc(N3CCC3)ccc2c1` , please?
Out: 1.75

In: Recorded log10(EC50) for `O=C(CCc1ccc(C(F)(F)F)cc1)Nc1ccc2nc(N3CC4CCC3CC4)ccc2c1` , please?
Out: 2.28
